# test.target: Cytochrome P450 2C9 (Homo sapiens)
# Sequence (P11712 whole entry): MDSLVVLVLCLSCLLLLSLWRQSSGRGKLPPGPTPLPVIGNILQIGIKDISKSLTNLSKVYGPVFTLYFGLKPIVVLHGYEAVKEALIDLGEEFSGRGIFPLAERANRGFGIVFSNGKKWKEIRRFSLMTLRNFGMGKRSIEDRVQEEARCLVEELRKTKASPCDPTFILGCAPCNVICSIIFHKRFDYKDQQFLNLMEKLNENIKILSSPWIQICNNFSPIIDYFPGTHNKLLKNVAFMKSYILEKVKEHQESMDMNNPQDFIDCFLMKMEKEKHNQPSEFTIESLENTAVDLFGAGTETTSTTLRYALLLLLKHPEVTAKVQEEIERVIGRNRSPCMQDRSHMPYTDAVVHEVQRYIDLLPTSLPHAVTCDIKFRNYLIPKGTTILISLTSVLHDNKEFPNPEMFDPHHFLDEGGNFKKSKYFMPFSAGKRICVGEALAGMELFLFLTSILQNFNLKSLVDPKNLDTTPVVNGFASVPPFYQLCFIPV
# assay.procedure: Inhibition of CYP2C9 (unknown origin)
# Type: ADME
value.type: IC50 (µM)

                                   compound                         test_target  unit_symbol  observed_measurement
0  Cc1ccc(NC(=O)Nc2cc(-c3ccccc3-c3nn[nH]n3)cc3c2OCC=CC3c2ccccc2)cc1 (racemic)  Cytochrome P450 2C9 (Homo sapiens)           µM                   2.8
1  CCCOc1c(CCC)cc(-c2ccccc2C(=O)O)cc1NC(=O)Nc1ccc(C)cc1  Cytochrome P450 2C9 (Homo sapiens)           µM                    14
2  Cc1ccc(NC(=O)Nc2cc(-c3ccccc3-c3nn[nH]n3)cc3c2OCCCC3c2ccccc2)cc1 (stereo in doubt; 21)  Cytochrome P450 2C9 (Homo sapiens)           µM                   3.7
3  CCCOc1c(CCC)cc(-c2ccccc2-c2nn[nH]n2)cc1NC(=O)Nc1ccc(C)cc1  Cytochrome P450 2C9 (Homo sapiens)           µM                   6.2
4  Cc1ccc(NC(=O)Nc2cc(-c3ccccc3-c3nnn[nH]3)ccc2N(CC(C)C)CC(C)C)cc1  Cytochrome P450 2C9 (Homo sapiens)           µM                   2.7
5  Cc1ccc(NC(=O)Nc2cc(-c3ccccc3-c3nn[nH]n3)ccc2OC(C(C)C)C(C)C)cc1  Cytochrome P450 2C9 (Homo sapiens)           µM                   1.4

###

Catalogue of compounds with associated pIC50
# test.target: Voltage-gated inwardly rectifying potassium channel KCNH2 (Homo sapiens, UniProt Q12809)
# Sequence (Q12809 whole entry): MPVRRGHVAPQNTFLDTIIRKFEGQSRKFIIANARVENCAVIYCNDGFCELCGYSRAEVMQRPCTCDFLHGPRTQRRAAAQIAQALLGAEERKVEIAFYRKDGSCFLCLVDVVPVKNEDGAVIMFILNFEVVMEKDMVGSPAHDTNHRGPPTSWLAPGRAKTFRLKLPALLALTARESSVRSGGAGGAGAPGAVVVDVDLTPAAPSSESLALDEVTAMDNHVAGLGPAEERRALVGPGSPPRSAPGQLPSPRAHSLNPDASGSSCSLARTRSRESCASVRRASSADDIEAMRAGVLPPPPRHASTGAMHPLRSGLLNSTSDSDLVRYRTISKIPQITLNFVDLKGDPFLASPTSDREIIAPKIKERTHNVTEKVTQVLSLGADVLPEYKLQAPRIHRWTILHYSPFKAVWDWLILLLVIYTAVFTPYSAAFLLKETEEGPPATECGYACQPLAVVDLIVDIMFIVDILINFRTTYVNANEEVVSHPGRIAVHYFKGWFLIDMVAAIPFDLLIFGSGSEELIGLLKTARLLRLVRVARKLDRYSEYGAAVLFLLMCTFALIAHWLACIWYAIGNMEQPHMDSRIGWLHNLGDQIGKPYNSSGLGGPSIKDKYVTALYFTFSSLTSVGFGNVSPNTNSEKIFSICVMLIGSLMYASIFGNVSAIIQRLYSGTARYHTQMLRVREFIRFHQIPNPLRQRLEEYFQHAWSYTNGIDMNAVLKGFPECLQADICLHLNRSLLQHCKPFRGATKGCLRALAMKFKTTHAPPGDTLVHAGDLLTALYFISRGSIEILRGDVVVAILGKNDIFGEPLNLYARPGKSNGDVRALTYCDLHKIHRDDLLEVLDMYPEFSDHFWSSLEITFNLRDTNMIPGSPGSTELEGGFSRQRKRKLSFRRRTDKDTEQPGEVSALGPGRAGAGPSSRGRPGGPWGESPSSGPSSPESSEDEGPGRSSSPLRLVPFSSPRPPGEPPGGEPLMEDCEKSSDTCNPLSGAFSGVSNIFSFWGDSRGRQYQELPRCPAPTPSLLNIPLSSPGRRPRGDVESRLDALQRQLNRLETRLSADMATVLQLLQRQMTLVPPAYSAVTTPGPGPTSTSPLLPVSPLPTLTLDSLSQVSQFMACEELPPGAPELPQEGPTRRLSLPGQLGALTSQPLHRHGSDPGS
pIC50: −log10 of the molar value.
value.type: pIC50

>>> print(df.to_string())
                              smiles_string                               test_target  value_type  observed_measurement
0  CCCC(CCC)Oc1ccc(-c2ccccc2-c2nn[nH]n2)cc1NC(=O)Nc1ccc(C)cc1  Voltage-gated inwardly rectifying potassium channel KCNH2 (Homo sapiens, UniProt Q12809)       pIC50                < 4.10
1  C=CC1(C=C)Oc2c(NC(=O)Nc3ccc(C)cc3)cc(-c3ccccc3-c3nn[nH]n3)cc2[C@@H]1c1ccccc1  Voltage-gated inwardly rectifying potassium channel KCNH2 (Homo sapiens, UniProt Q12809)       pIC50                < 4.10
2  CCCOc1c(CCC)cc(-c2ccccc2C(=O)O)cc1NC(=O)Nc1ccc(C)cc1  Voltage-gated inwardly rectifying potassium channel KCNH2 (Homo sapiens, UniProt Q12809)       pIC50                < 4.10
